system: HeLa-ACE2 cells
Collected CC50 values appear next to each entry.

Cc1ncc(-c2cc3c(N[C@@H](c4ccc5c(c4)OCCO5)C(C)C)ncnc3[nH]2)cn1    > 20 µM

# ---- query compound ----
compound CC(C)[C@@H](Nc1ncnc2[nH]c(-c3cnn(C)n3)cc12)c1ccc2c(c1)OCCO2 , CC50 observed: > 20 µM

====

assay: Hepatic microsomal stability, MLM; type: in vitro ADME; conditions: In vitro mouse liver microsomal stability, no cofactor
Collected perc_remaining_no_cofactor values appear next to each entry.
Expressed in %, but write only the number.

Solved cases (4 shown):
Cn1ncc(-c2cc3c(N[C@H](c4ccc5c(n4)OCCO5)C(C)(C)C)ncnc3[nH]2)c1C#N (racemic)    106.0
CC(C)(C)[C@H](Nc1ncnc2[nH]c(-c3cnn(CC(N)=O)c3)cc12)c1ccc2c(c1)OCCO2 (single isomer, unassigned) [ASAP-0012332]    106.0
CNC(=O)Cn1cc(-c2cc3c(N[C@H](c4ccc5c(c4)S(=O)(=O)CCC5)C(C)C)ncnc3[nH]2)cn1 (single isomer, unassigned)    96.0
CC(C)[C@H](Nc1ncnc2[nH]c(-c3cnn(C)c3C#N)cc12)c1ccc2c(c1)NC(=O)CO2 (single isomer, unassigned) [ASAP-0013255]    96.0

compound CC(C)[C@@H](Nc1ncnc2[nH]cc(C(=O)NC3CC3)c12)c1ccc2c(c1)S(=O)(=O)CCC2 , perc_remaining_no_cofactor observed: 102.0

compound CC(C)[C@@H](Nc1ncnc2[nH]c(-c3cnn(C)c3C#N)cc12)c1ccc2c(c1)S(=O)(=O)CCC2 (single isomer, unassigned) , perc_remaining_no_cofactor observed: 106.0
